- System: MDA-MB-435
- Run Description: NCI tumour cell line growth inhibition, 48 h
Activity calls are given as the source filed them. No stated cut-off is given here; in the data, active = GI50 up to about 1.1 µM and inactive = higher.
Outcomes: active, inactive

{"Molecule": "COc1cccc(CCn2c(N)c(-c3cc(Cl)cc(Cl)c3)c3ccc([N+](=O)[O-])cc3c2=O)c1", "Classification": "inactive"}
{"Molecule": "c1cc2c(cc1C1=NCCN1)c1cc(C3=NCCN3)ccc1n2CC1CCCCC1", "Classification": "inactive"}
{"Molecule": "COC(=O)C1(Cc2cccc(C)c2)Cc2c(C)cccc2C1=O (centres undefined)", "Classification": "inactive"}
{"Molecule": "C[C@@H]1C[C@H](O)[C@]2(O)O[C@@H]3C[C@@]4(C=O)[C@@H](CC=C5[C@@H]4CC[C@]4(C)[C@@H](C6=CC(=O)OC6)CC[C@]54O)C[C@H]3O[C@@H]2O1", "Classification": "active"}
